Would you kindly list inhibition for each of these compounds?
# TARGET_UNDER_TEST: Dual specificity protein phosphatase 6 (Homo sapiens) (UniProt Q16828)
# Sequence (Q16828 whole entry, looked up): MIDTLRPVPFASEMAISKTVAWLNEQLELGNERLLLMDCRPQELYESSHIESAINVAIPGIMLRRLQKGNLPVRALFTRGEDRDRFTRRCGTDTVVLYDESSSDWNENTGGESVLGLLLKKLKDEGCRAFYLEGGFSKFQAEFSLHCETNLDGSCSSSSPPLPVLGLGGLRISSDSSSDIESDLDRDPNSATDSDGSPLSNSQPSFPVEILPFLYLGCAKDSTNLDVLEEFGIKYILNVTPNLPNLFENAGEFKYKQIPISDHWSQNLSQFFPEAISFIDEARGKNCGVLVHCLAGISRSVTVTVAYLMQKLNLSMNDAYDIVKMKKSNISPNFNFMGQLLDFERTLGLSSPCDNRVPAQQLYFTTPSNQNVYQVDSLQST
# PROTOCOL_NOTES: DUSP6 inhibitors restoring Erk phosphorylation by chemical complementation, primary imaging in DUSP6-transfected HeLa (AID 609);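 note: phospho-Erk level distribution per well compared with pooled transfected vehicle control wells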
# STUDY_CONDITIONS: HeLa MKP-3 transfected, phospho-Erk imaging KS statistic; at 10 µM; active compounds read high; cells stimulated with TPA for 15 min
Please respond with the number in % and leave the unit unwritten.

Look up inhibition: CC1(C)NC(=O)N(CC(O)COc2ccccc2C(=O)Nc2ccccc2)C1=O (stereo unspecified)
14

Suppose we examine the compound CCC1CCCCN1c1nc(-c2ccncc2)nc2ccccc12 (stereo unspecified) ; what inhibition value has been reported?
14

# inhibition lookup, item N#C/C(C(=O)N1CCOCC1)=C1/SC(Cc2ccccc2)C(=O)N1c1ccccc1 (stereo unspecified)
-2.09

Fill in the blank: the reported inhibition of CCCCc1cc(=O)oc2c(CN(C)C)c(O)c(Cl)cc12 is ____.
-5.26

Any idea what its inhibition is? The compound is COc1cccc(NC(=O)CC2SC(=Nc3ccccc3)NC2=O)c1 (stereo unspecified)
9.91

Name the reported inhibition value associated with the compound C=CCOc1nc2c(c(=O)n(C)c(=O)n2C)n1Cc1c(Cl)cccc1Cl
-4.7

Entry Cc1onc(-c2ccccc2)c1C(=O)N[C@@H]1C(=O)N2[C@@H]1SC(C)(C)[C@@H]2C(=O)O has what inhibition?
25.1

Tell me the measured inhibition of CCOc1cccc(-c2nnc3sc(COc4ccccc4)nn23)c1 , please.
-4.27

inhibition lookup needed for CNS(=O)(=O)c1cccc2nsnc12 , thanks.
-15

What measured inhibition goes with CCSc1nnc(N(CCC#N)CCC#N)s1 ?
5.57

Sample CC1(C)S[C@@H]2[C@H](NC(=O)[C@H](C(=O)O)c3ccsc3)C(=O)N2[C@H]1C(=O)O — what was its inhibition?
7.39
